pKi: −log10 of the molar value.
Across several publications, the following pKi results were reported for Sodium-dependent noradrenaline transporter (Homo sapiens, UniProt P23975).
propertyMeasured: pKi

Record excerpt, results attached:
compound	value
COc1cc(F)ccc1Oc1nc(C)ccc1OC[C@H]1CCCNC1	8.21
Fc1ccc(-c2ccc(F)cc2CO[C@H]2CCNC2)cc1	7.36
Cc1ccc(OC[C@H]2CCCNC2)c(Oc2cc(F)c(F)cc2F)n1	8.28
CN1CCN(c2nc(-c3ccc(F)c(F)c3)c3ccc(F)cc3n2)CC1	6.15
CN1CCN(c2nc(-c3ccccc3)c3ccccc3n2)CC1	7.53
Cc1ccc(OC[C@H]2CCCNC2)c(Oc2ccc(F)cc2Cl)n1	8.57

(P) CNC1CCN(c2nc(-c3ccc(F)cc3F)c3ccccc3n2)C1 (stereo not shown)
(Q) Cc1ccccc1-c1nc(C2CCCNC2)nc2ccccc12 (stereo not shown)
Please indicate which entry, P or Q , has the lower recorded pKi value. Reply briefly: the label of your chosen item.
P

(A) Fc1cccc(F)c1-c1nc(N2CCNCC2)nc2ccc(Cl)cc12
(B) Fc1ccc(Oc2cccc(F)c2OC[C@H]2CCCNC2)cc1F
# return whichever of A and B has the smaller pKi Answer by quoting the chosen item's label.
A

(a) CC(C)N(C(=O)c1ccccc1-c1ccccc1CO[C@H]1CCNC1)C(C)C
(b) CC(C)Oc1ncccc1-c1ccccc1CO[C@H]1CCNC1
(c) COc1cccc(F)c1Oc1cc(Cl)ccc1OC[C@H]1CCCNC1
Write the entries in order, lowest recorded pKi first. Field: ranking. Enter the labels in the order requested.
b, a, c

(I) COc1c(C)cc(-c2ccc(F)cc2CO[C@H]2CCNC2)cc1C
(II) CN1CCN(c2nc(-c3ccc(F)cc3)c3ccccc3n2)CC1
(III) Fc1ccc(-c2nc(N3CCNCC3)nc3ccccc23)c(Cl)c1
(IV) CN1CCN(c2nc(-c3ccccc3F)c3ccccc3n2)CC1
Ascending by pKi, please: list the compounds accordingly. Return the labels ranked in the requested order, please.
I, II, IV, III
(I: 6.13, II: 7.09, IV: 7.92, III: 8.16)

(a) Cc1cc(-c2ccc(F)cc2CO[C@H]2CCNC2)ccc1F
(b) Cc1ccc(OC[C@H]2CCCNC2)c(Oc2ccc(Cl)c(Cl)c2)n1
I'd appreciate it if you could identify which of a and b has the greater pKi. Choose, then provide that item's label.
b
(b: 7.92, a: 6.99)

* * *

Study the reported Ki values for Sodium-dependent noradrenaline transporter (Homo sapiens, UniProt P23975) given below; they originate from different publications.

molecule	testedSystem	propertyMeasured	value
CCOc1ccc(-n2nc3c(N(C)Cc4ccc(OC)cn4)nnc(C)c3c2C)c(F)c1	Sodium-dependent noradrenaline transporter (Homo sapiens, UniProt P23975)	Ki	0.1 to 0.5 µM

Report Ki for CNCCC(Oc1cccc(-n2nc3c(N(C)C)nnc(C)c3c2C)c1)c1ccc(C#N)cc1 (centres unmarked) tested on Sodium-dependent noradrenaline transporter (Homo sapiens, UniProt P23975).
0.1 to 0.5 µM

# query: Ki | item "CCC[C@H](Oc1c(F)ccc(OC)c1Cl)[C@H]1CCNC1" | system: Sodium-dependent noradrenaline transporter (Homo sapiens, UniProt P23975)
≤ 0.01 µM

# value lookup — system Sodium-dependent noradrenaline transporter (Homo sapiens, UniProt P23975), readout Ki, item "CC[C@H](Oc1ccc(Cl)c(F)c1Cl)[C@H]1CCNC1"
≤ 0.01 µM

Lookup: Ki / Sodium-dependent noradrenaline transporter (Homo sapiens, UniProt P23975) / "CC[C@H](Oc1ccc(Cl)c(F)c1)[C@H]1CCNC1"
≤ 0.01 µM

Short answer please: Ki, Sodium-dependent noradrenaline transporter (Homo sapiens, UniProt P23975), entry "CC(C)Oc1ccc(-c2ccccc2CO[C@H]2CCNC2)cc1"
≥ 10 µM

Identify the measured Ki of "CCOc1ccc(-n2nc3c(NCc4ccccc4CO)nnc(C)c3c2C)c(F)c1" for Sodium-dependent noradrenaline transporter (Homo sapiens, UniProt P23975).
> 1 µM

API: value(readout=Ki, system=Sodium-dependent noradrenaline transporter (Homo sapiens, UniProt P23975)) for record "CNC[C@H](Oc1cccc(-n2nc3c(N(C)C)nnc(C)c3c2C)c1)c1ccccc1"
0.1 to 0.5 µM

Recall the recorded Ki for "COc1ccc(Oc2ncccc2OC[C@H]2CCCNC2)cc1" with Sodium-dependent noradrenaline transporter (Homo sapiens, UniProt P23975) and state it.
0.027 µM

Give Ki (Sodium-dependent noradrenaline transporter (Homo sapiens, UniProt P23975)) of the following molecule: "CC(C)[C@H]1CNCCN1c1nc(-c2ccc(F)cc2F)c2ccccc2n1"
0.0661 µM

# get_value(readout= Ki, system= Sodium-dependent noradrenaline transporter (Homo sapiens, UniProt P23975)) for "CCC[C@H](Oc1cccc(Cl)c1C(F)(F)F)[C@H]1CCNC1"
≤ 0.01 µM

For the record CC(C)C(Oc1ccc(C(F)(F)F)cc1)C1CCNC1 (centres unmarked) , what value of Ki is listed for Sodium-dependent noradrenaline transporter (Homo sapiens, UniProt P23975)?
≤ 0.1 µM

Report Ki for "CC[C@H](Oc1c(Cl)ccc(Cl)c1Cl)[C@H]1CCNC1" tested on Sodium-dependent noradrenaline transporter (Homo sapiens, UniProt P23975).
≤ 0.01 µM

API: value(readout= Ki, system= Sodium-dependent noradrenaline transporter (Homo sapiens, UniProt P23975), query= "Clc1cc(Cl)cc(O[C@@H](C2CC2)[C@H]2CCNC2)c1" )
≤ 0.01 µM

Please provide the recorded Ki for "CC(C)[C@H](Oc1c(Cl)c(F)cc(F)c1Cl)[C@H]1CCNC1" , tested on Sodium-dependent noradrenaline transporter (Homo sapiens, UniProt P23975).
≤ 0.01 µM

Request body: readout Ki, system Sodium-dependent noradrenaline transporter (Homo sapiens, UniProt P23975), query CC(C)CC(Oc1cccc(F)c1)C1CCNC1 (centres unmarked) . Return the value.
≤ 0.01 µM

Which Ki is reported with Sodium-dependent noradrenaline transporter (Homo sapiens, UniProt P23975) for this entry: "Fc1cccc(F)c1-c1nc(NC2CCNCC2)nc2ccccc12" ?
0.267 µM

What is its Ki for Sodium-dependent noradrenaline transporter (Homo sapiens, UniProt P23975)? Entry: "Clc1cccc(O[C@@H](C2CC2)[C@@H]2CCNC2)c1Cl"
≤ 0.1 µM
